# assay.notes: Study 2 Part 1: single ascending dose PK via MDDPI
# Format: in vivo
# particulars: human, plasma, inhaled, 4000 µg
measurement.label: half-life (h)

# molecule, u, measured.number
measured = [
    ("CS(=O)(=O)Nc1ccc(C(=O)O[C@@H](Cc2c(Cl)c[n+]([O-])cc2Cl)c2ccc(OC(F)F)c(OCC3CC3)c2)cc1OCC1CC1 [CHF6001]", "h", 44),
]

* * *

# assay.notes: Study 1 Part 2: repeat ascending dose
# Type: in vivo, human
# particulars: human, plasma, inhaled, 600 ug, tmax, 600 µg OD, SDDPI, Day 7, N=9; median (range)
measurement.label: Tmax (h)

# sample.smiles, measured.number
records = [
    ("CS(=O)(=O)Nc1ccc(C(=O)O[C@@H](Cc2c(Cl)c[n+]([O-])cc2Cl)c2ccc(OC(F)F)c(OCC3CC3)c2)cc1OCC1CC1", 2),
]

* * *

# assay.notes: Study 2 Part 2: repeat ascending dose
# Type: in vivo, human
# particulars: human, plasma, inhaled, 1200 µg, AUC0–12 h, 1,200 µg BID, MDDPI, Day 14, N=9; geometric mean (% CV)

# molecule, AUC(0-t) [ng·h/mL]
data = [
    ("CS(=O)(=O)Nc1ccc(C(=O)O[C@@H](Cc2c(Cl)c[n+]([O-])cc2Cl)c2ccc(OC(F)F)c(OCC3CC3)c2)cc1OCC1CC1 [CHF6001]", 34),
]

* * *

# assay.notes: Study 2 Part 1: single ascending dose PK via MDDPI
# Type: in vivo
# particulars: human, plasma, inhaled, 4000 µg

# sample.smiles, AUC(0-t)
measured = [
    ("CS(=O)(=O)Nc1ccc(C(=O)O[C@@H](Cc2c(Cl)c[n+]([O-])cc2Cl)c2ccc(OC(F)F)c(OCC3CC3)c2)cc1OCC1CC1", "75.8 ng·h/mL"),
]

* * *

# assay.notes: Study 2 Part 1: single ascending dose PK via MDDPI
# Type: in vivo
# particulars: human, plasma, inhaled, 4800 µg

# sample.smiles, AUC(0-t), ng·h/mL
measured = [
    ("CS(=O)(=O)Nc1ccc(C(=O)O[C@@H](Cc2c(Cl)c[n+]([O-])cc2Cl)c2ccc(OC(F)F)c(OCC3CC3)c2)cc1OCC1CC1", 77.4),
]

* * *

# assay.notes: Study 1 Part 1: single ascending dose PK via SDDPI
# Assay type: in vivo
# particulars: human, plasma, inhaled, 200 ug

# sample.smiles, u, half-life
data = [
    ("CS(=O)(=O)Nc1ccc(C(=O)O[C@@H](Cc2c(Cl)c[n+]([O-])cc2Cl)c2ccc(OC(F)F)c(OCC3CC3)c2)cc1OCC1CC1", "h", 30.1),
]

* * *

# assay.notes: Study 1 Part 1: single ascending dose PK via SDDPI
# Assay type: in vivo
# particulars: human, plasma, inhaled, 2000 µg
measurement.label: half-life

# sample.smiles, result
records = [
    ("CS(=O)(=O)Nc1ccc(C(=O)O[C@@H](Cc2c(Cl)c[n+]([O-])cc2Cl)c2ccc(OC(F)F)c(OCC3CC3)c2)cc1OCC1CC1", "37.3 h"),
]

* * *

# assay.notes: Study 2 Part 2: repeat ascending dose
# Assay type: in vivo, human
# particulars: human, plasma, inhaled, 2400 µg, AUC0–12 h, 2,400 µg BID, MDDPI, Day 14, n=8; geometric mean (% CV)

# sample.smiles, AUC(0-t) / ng·h/mL
data = [
    ("CS(=O)(=O)Nc1ccc(C(=O)O[C@@H](Cc2c(Cl)c[n+]([O-])cc2Cl)c2ccc(OC(F)F)c(OCC3CC3)c2)cc1OCC1CC1", 61.9),
]

* * *

# assay.notes: Study 1 Part 2: repeat ascending dose
# Type: in vivo, human
# particulars: human, plasma, inhaled, 100 ug, AUC0–24 h, 100 µg OD, SDDPI, Day 1, N=7; geometric mean (% CV)

# sample.smiles, AUC(0-t) / ng·h/mL
data = [
    ("CS(=O)(=O)Nc1ccc(C(=O)O[C@@H](Cc2c(Cl)c[n+]([O-])cc2Cl)c2ccc(OC(F)F)c(OCC3CC3)c2)cc1OCC1CC1", 0.796),
]

* * *

# assay.notes: Study 1 Part 1: single ascending dose PK via SDDPI
# Type: in vivo
# particulars: human, plasma, inhaled, 400 ug
measurement.label: AUC(0-t) (ng·h/mL)

# sample.smiles, measured.number
measured = [
    ("CS(=O)(=O)Nc1ccc(C(=O)O[C@@H](Cc2c(Cl)c[n+]([O-])cc2Cl)c2ccc(OC(F)F)c(OCC3CC3)c2)cc1OCC1CC1", 5.38),
]

* * *

# assay.notes: Study 1 Part 1: single ascending dose PK via SDDPI
# Assay type: in vivo
# particulars: human, plasma, inhaled, 800 ug

# sample.smiles, AUC(0-t) (ng·h/mL)
data = [
    ("CS(=O)(=O)Nc1ccc(C(=O)O[C@@H](Cc2c(Cl)c[n+]([O-])cc2Cl)c2ccc(OC(F)F)c(OCC3CC3)c2)cc1OCC1CC1", 10.6),
]

* * *

# assay.notes: Study 1 Part 2: repeat ascending dose
# Type: in vivo, human
# particulars: human, plasma, inhaled, 300 ug, tmax, 300 µg OD, SDDPI, Day 7, N=8; median (range)

# compound, Tmax / h
rows = [
    ("CS(=O)(=O)Nc1ccc(C(=O)O[C@@H](Cc2c(Cl)c[n+]([O-])cc2Cl)c2ccc(OC(F)F)c(OCC3CC3)c2)cc1OCC1CC1 [CHF6001]", 1),
]

* * *

# assay.notes: Study 1 Part 1: single ascending dose PK via SDDPI
# Assay type: in vivo
# particulars: human, plasma, inhaled, 20 ug
measurement.label: Cmax

# sample.smiles, measurement.label, result
data = [
    ("CS(=O)(=O)Nc1ccc(C(=O)O[C@@H](Cc2c(Cl)c[n+]([O-])cc2Cl)c2ccc(OC(F)F)c(OCC3CC3)c2)cc1OCC1CC1", "Cmax", "0.0189 ng/mL"),
]

* * *

# assay.notes: Study 2 Part 1: single ascending dose PK via MDDPI
# Type: in vivo
# particulars: human, plasma, inhaled, 4800 µg

# sample.smiles, u, Tmax
data = [
    ("CS(=O)(=O)Nc1ccc(C(=O)O[C@@H](Cc2c(Cl)c[n+]([O-])cc2Cl)c2ccc(OC(F)F)c(OCC3CC3)c2)cc1OCC1CC1", "h", 3),
]

* * *

# assay.notes: Study 1 Part 1: single ascending dose PK via SDDPI
# Type: in vivo
# particulars: human, plasma, inhaled, 200 ug

# sample.smiles, Cmax
rows = [
    ("CS(=O)(=O)Nc1ccc(C(=O)O[C@@H](Cc2c(Cl)c[n+]([O-])cc2Cl)c2ccc(OC(F)F)c(OCC3CC3)c2)cc1OCC1CC1", "0.14 ng/mL"),
]

* * *

# assay.notes: Study 1 Part 2: repeat ascending dose
# Assay type: in vivo, human
# particulars: human, plasma, inhaled, 100 ug, AUC0–24 h, 100 µg OD, SDDPI, Day 7, N=7; geometric mean (% CV)

# compound, AUC(0-t) (ng·h/mL)
measured = [
    ("CS(=O)(=O)Nc1ccc(C(=O)O[C@@H](Cc2c(Cl)c[n+]([O-])cc2Cl)c2ccc(OC(F)F)c(OCC3CC3)c2)cc1OCC1CC1 [CHF6001]", 2.3),
]

* * *

# assay.notes: Study 1 Part 1: single ascending dose PK via SDDPI
# Type: in vivo
# particulars: human, plasma, inhaled, 100 ug

# molecule, u, half-life
measured = [
    ("CS(=O)(=O)Nc1ccc(C(=O)O[C@@H](Cc2c(Cl)c[n+]([O-])cc2Cl)c2ccc(OC(F)F)c(OCC3CC3)c2)cc1OCC1CC1 [CHF6001]", "h", 28.2),
]

* * *

# assay.notes: Study 1 Part 2: repeat ascending dose
# Assay type: in vivo, human
# particulars: human, plasma, inhaled, 600 ug, AUC0–24 h, 600 µg OD, SDDPI, Day 7, N=9; geometric mean (% CV)

# sample.smiles, AUC(0-t)
data = [
    ("CS(=O)(=O)Nc1ccc(C(=O)O[C@@H](Cc2c(Cl)c[n+]([O-])cc2Cl)c2ccc(OC(F)F)c(OCC3CC3)c2)cc1OCC1CC1", "10.5 ng·h/mL"),
]

* * *

# assay.notes: Study 2 Part 1: single ascending dose PK via MDDPI
# Assay type: in vivo
# particulars: human, plasma, inhaled, 2400 µg

# molecule, Tmax / h
measured = [
    ("CS(=O)(=O)Nc1ccc(C(=O)O[C@@H](Cc2c(Cl)c[n+]([O-])cc2Cl)c2ccc(OC(F)F)c(OCC3CC3)c2)cc1OCC1CC1 [CHF6001]", 3),
]
